EXPERIMENTAL TARGET: T1, recombinant human CD33 protein (Sino Biologicals) (human, UniProt P20138 18-259)
T1 construct: Bought protein; also called recombinant CD33
T1 sequence (P20138 18-259 limits assumed): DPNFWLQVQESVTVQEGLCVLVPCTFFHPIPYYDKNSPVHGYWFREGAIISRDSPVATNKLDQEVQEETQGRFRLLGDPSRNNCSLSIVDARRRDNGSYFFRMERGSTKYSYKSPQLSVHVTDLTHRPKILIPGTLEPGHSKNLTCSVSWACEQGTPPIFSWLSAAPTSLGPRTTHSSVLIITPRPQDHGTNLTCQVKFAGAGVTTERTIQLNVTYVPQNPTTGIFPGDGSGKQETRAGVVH
EXPERIMENTAL DETAILS: BLI (ForteBio), antibody on anti-human Fc sensor, CD33 10 nM
OBSERVABLE: koff (s⁻¹)
Answer format: numeric, s⁻¹ implied, no suffix.

anti-CD33 antibody 6C7H24 (antibody, V domains shown, VH/VL only) VH: EVQLVESGGGLVQPGGSLRLSCAGSGFTFSNYNMNWVRQAPGKGLEWVAEIRLKSNNYVTNYAASVKGRFTISRDDSKNSVYLQMNSLKTEDTGVYYCTRAGYYVPFAYWGQGTLVTVSS VL: QLVLTQSPSASASLGASVKLTCTLSSQHSTYTIEWYQQQPEKGPRYLMELKKEGSHSTGDGIPDRFSGSSSGAERYLTISSLQSEDEADYYCGVGDTIKEQFVYVFGGGTKLTVL	0.000757
anti-CD33 antibody 6C7H10 (antibody, IgG1, V domains shown, VH/VL only; also called 6C7H10 IgG1) VH: EVQLVESGGGLVQPGGSLRLSCAASGFTFSEYAMNWVRQAPGKGLEWVGEIRLKSNNYVTNYAASVKGRFTISRDDSKNSVYLQMNSLKTEDTGVYYCTRAGYYVPFAYWGQGTLVTVSS VL: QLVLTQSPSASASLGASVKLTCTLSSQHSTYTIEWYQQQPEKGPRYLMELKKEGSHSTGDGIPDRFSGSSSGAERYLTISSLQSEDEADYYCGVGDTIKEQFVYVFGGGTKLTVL	0.000823
anti-CD33 antibody 6C7H19 (antibody, V domains shown, VH/VL only) VH: EVQLVESGGGLVQPGGSLRLSCAGSGFTFSNYRMNWVRQAPGKGLEWVAEIRLKSNNYVTNYAASVKGRFTISRDDSKNSVYLQMNSLKTEDTGVYYCTRAGYYVPFAYWGQGTLVTVSS VL: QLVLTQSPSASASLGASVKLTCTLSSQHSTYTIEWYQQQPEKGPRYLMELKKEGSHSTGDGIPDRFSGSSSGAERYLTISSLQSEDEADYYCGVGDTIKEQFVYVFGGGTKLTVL	0.00114
anti-CD33 antibody 6C7H13 (antibody, V domains shown, VH/VL only) VH: EVQLVESGGGLVQPGGSLRLSCAGSGFTFSNYFMNWVRQAPGKGLEWVAEIRLKSNNYVTNYAASVKGRFTISRDDSKNSVYLQMNSLKTEDTGVYYCTRAGYYVPFAYWGQGTLVTVSS VL: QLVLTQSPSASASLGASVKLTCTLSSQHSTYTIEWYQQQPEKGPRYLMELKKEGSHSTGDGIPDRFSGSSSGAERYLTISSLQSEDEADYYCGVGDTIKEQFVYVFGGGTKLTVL	0.0031
anti-CD33 antibody 6C7H25 (antibody, V domains shown, VH/VL only) VH: EVQLVESGGGLVQPGGSLRLSCAGSGFTFSNYEMNWVRQAPGKGLEWVAEIRLKSNNYVTNYAASVKGRFTISRDDSKNSVYLQMNSLKTEDTGVYYCTRAGYYVPFAYWGQGTLVTVSS VL: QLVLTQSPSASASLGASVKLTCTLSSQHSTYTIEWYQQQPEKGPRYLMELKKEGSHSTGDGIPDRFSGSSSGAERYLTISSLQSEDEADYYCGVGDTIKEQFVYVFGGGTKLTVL	0.00013

## Input Item anti-CD33 antibody 6C7H18 (antibody, V domains shown, VH/VL only) VH: EVQLVESGGGLVQPGGSLRLSCAGSGFTFSNYHMNWVRQAPGKGLEWVAEIRLKSNNYVTNYAASVKGRFTISRDDSKNSVYLQMNSLKTEDTGVYYCTRAGYYVPFAYWGQGTLVTVSS VL: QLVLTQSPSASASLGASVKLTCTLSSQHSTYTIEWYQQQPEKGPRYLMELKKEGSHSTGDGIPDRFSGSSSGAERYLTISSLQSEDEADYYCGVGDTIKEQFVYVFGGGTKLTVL has what recorded koff?
## Output 0.00064

## Input Item anti-CD33 antibody 6C7H15 (antibody, V domains shown, VH/VL only) VH: EVQLVESGGGLVQPGGSLRLSCAGSGFTFSNYSMNWVRQAPGKGLEWVAEIRLKSNNYVTNYAASVKGRFTISRDDSKNSVYLQMNSLKTEDTGVYYCTRAGYYVPFAYWGQGTLVTVSS VL: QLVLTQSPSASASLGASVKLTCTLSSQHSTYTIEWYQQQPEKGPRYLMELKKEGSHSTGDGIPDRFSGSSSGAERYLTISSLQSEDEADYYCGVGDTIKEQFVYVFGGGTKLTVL has what recorded koff?
## Output 0.000825

## Input Item anti-CD33 antibody 6C7H20 (antibody, V domains shown, VH/VL only) VH: EVQLVESGGGLVQPGGSLRLSCAGSGFTFSNYPMNWVRQAPGKGLEWVAEIRLKSNNYVTNYAASVKGRFTISRDDSKNSVYLQMNSLKTEDTGVYYCTRAGYYVPFAYWGQGTLVTVSS VL: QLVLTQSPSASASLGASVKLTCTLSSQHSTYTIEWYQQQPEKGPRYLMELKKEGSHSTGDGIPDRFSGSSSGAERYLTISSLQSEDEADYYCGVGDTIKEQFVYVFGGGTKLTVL has what recorded koff?
## Output 0.000457

## Input Item anti-CD33 antibody 6C7H14 (antibody, V domains shown, VH/VL only) VH: EVQLVESGGGLVQPGGSLRLSCAGSGFTFSNYAMNWVRQAPGKGLEWVAEIRLKSNNYVTNYAASVKGRFTISRDDSKNSVYLQMNSLKTEDTGVYYCTRAGYYVPFAYWGQGTLVTVSS VL: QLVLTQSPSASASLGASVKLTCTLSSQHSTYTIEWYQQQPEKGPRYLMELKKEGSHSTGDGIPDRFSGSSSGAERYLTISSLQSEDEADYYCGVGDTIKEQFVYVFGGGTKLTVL has what recorded koff?
## Output 0.000798
